Where do these numbers come from? They come from PubChem BioAssay.

molecular target: Short transient receptor potential channel 6 (Mus musculus) (UniProt Q61143); test: TRPC6 blockade by TRPC4 inhibitor hits – cell-based, HEK293, membrane potential dye, duplicate, selectivity assay for TRPC4 inhibitor project, confirmation (AID 434948); details: HEK293 TRPC6, membrane potential dye fluorescence, at 10 µM, stimulated with maximal-effect acetylcholine
Sequence (Q61143 whole entry, looked up): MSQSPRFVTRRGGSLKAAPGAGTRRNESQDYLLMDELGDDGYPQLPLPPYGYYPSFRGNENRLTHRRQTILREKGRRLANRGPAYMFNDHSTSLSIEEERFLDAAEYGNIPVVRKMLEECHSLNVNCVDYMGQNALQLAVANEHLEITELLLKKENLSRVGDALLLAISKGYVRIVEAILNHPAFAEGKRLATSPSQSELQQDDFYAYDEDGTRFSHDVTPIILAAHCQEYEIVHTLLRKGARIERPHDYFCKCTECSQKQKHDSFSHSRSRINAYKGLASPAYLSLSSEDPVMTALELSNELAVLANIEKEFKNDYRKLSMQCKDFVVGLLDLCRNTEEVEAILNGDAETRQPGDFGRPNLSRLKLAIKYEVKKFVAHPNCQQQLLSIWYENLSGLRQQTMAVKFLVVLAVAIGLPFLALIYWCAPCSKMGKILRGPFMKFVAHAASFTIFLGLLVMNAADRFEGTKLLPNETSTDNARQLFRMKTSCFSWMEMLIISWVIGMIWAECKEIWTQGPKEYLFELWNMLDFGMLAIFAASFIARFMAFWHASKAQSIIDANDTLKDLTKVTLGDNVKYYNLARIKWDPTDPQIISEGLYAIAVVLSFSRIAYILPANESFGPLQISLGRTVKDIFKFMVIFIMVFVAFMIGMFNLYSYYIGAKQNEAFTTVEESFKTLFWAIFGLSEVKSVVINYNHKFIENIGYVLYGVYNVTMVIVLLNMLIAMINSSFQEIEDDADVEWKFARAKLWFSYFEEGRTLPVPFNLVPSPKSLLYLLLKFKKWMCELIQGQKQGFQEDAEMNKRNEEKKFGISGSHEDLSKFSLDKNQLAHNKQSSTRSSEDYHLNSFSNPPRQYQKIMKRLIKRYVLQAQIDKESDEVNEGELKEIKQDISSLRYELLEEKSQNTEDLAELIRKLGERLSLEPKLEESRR
Active and inactive are the calls of the source.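 How the source made its calls: active means active in primary screen and both duplicates, each dropping signal beyond three positive-control SD with fluorescence still positive; inactive means the rest.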
Bench note: report the call from active, inactive

Query: For this molecule, state the assay outcome: "CC(C)Oc1cc(N)c(Cl)cc1Cl"
Reply: inactive

Query: Then what about the molecule "CN1/C(=C\C(=O)C[n+]2ccc3ccccc3c2)C(C)(C)c2ccccc21" ?
Reply: inactive

Query: And what about the molecule "CCn1c(NCc2ccco2)nc2ccccc21" ?
Reply: inactive

Query: Thanks! And "COC(=O)[C@H](Cc1ccccc1)NC(=O)c1ccc2ccccc2n1" ?
Reply: inactive

Query: Same lookup for "CCOC(=O)C1(Cc2cccc(OC)c2)CCN(Cc2ccc(OC)c(O)c2)CC1" , please.
Reply: inactive

Query: Same question, "O=Cc1cc(N=Nc2ccccc2Cl)ccc1O" this time
Reply: inactive

Query: Also "CC1(C)CN=c2s/c(=C\c3ccc(Cl)cc3)c(=O)n2C1" , if possible.
Reply: inactive

Query: And for Cc1ccc2c(c1)N(C(=O)CCC(=O)Nc1ccccc1Br)CC(C)O2 (centres undefined) ?
Reply: inactive

Query: Entry "NC(=NC1CCCCC1)c1ccc(Cl)cc1" please
Reply: inactive

Query: Okay, and Cc1ccc(CNC(=O)CCC2CCCN(Cc3cc4ccccc4o3)C2)o1 (centres undefined) ?
Reply: inactive

Query: "CC(=O)Nc1ccc(S(=O)(=O)NC2=C(N3CCN(Cc4ccccc4)CC3)C(=O)c3ccccc3C2=O)cc1" ?
Reply: active

Query: And the next one, CCCCc1nc2ccccc2c(N)c1CCC (tested in a mixture with another compound) ?
Reply: active

Query: Same thing, different molecule: CCCn1c(=O)c(C(=O)NCC2CCCO2)c(O)c2ccccc21 (centres undefined)
Reply: inactive

Query: Please give the result for O=C(c1cccc(C(F)(F)F)c1)C1CCCN(Cc2cccn2-c2ccccn2)C1 (centres undefined) too.
Reply: active

Query: Can you handle "Cc1cccc(-n2nc(C)c3c(C(=O)O)cc(-c4cccs4)nc32)c1" next?
Reply: inactive

Query: Now this one: "Cc1cc(C)nc(NNS(=O)(=O)c2ccc(F)c(Cl)c2)n1"
Reply: inactive

Query: Now consider CCCN(C(=O)COC(=O)C12CCC(=O)N1c1ccccc1S2)c1c(N)n(Cc2ccccc2)c(=O)[nH]c1=O (centres undefined) .
Reply: inactive

Query: What about this molecule? "Oc1ccc(-c2csc(-c3ccccc3)n2)cc1O"
Reply: inactive

Query: Another: COc1ccc(C(c2nnnn2C2CCCC2)N2CCN(c3ccccc3)CC2)cc1 (centres undefined)
Reply: inactive

Query: And the next one, "CC(C)c1ccc(OCc2ccc(C(=O)N3CCCC3)o2)cc1" ?
Reply: inactive

Query: Another molecule to look at: "O=C(CC1CCCCC1)c1c(O)c2ccccc2oc1=O"
Reply: inactive

Query: Next: "CCOc1ccc(NC(=O)c2c[nH]n3c(=O)cc(C4CCN(C(=O)OC(C)(C)C)CC4)nc23)cc1"
Reply: inactive

Query: What do you get for "O=C(C[n+]1cc(-c2ccc(Cl)c(Cl)c2)n2c1CCC2)N1c2ccccc2Sc2ccccc21" ?
Reply: active

Query: Lookup "COCCn1c(SCC(=O)Nc2ccc(S(=O)(=O)N3CCOCC3)cc2)nc2ccccc21"
Reply: inactive

Query: Now the same for O=[N+]([O-])c1cc(C(F)(F)F)ccc1NC1CCN(Cc2ccccc2)C1 (centres undefined)
Reply: inactive

Query: Ok, now CCN1CCCC1CNCc1ccc(Cl)cc1Cl (centres undefined)
Reply: inactive

Query: Moving on to the next molecule: "CCN1CCN(c2ccc(S(=O)(=O)N3CCCCC3)cc2NC(=O)c2cccc(OC(F)F)c2)CC1"
Reply: inactive

Query: Follow-up item: CCOc1ccccc1N(C(=O)c1snc(C(N)=O)c1N)C(C(=O)NCc1ccccc1)c1ccc(O)cc1 (centres undefined)
Reply: inactive

Query: Next molecule: "CCCCn1c2ccccc2c2nnc(SCCN3CCCCC3)nc21"
Reply: active

Query: Could you do the same for "Cc1cccc(C(=O)NC(=S)NNC(=O)Cc2ccccc2)c1" , please?
Reply: inactive

Query: And what about the molecule CC1CCCN(c2c3c(nc4ccccc24)CCCC3)C1 (centres undefined) ?
Reply: inactive

Query: Can you handle "COC(=O)CSc1nnc2n(-c3ccc(OC)cc3)c(=O)c3c4c(sc3n12)CCCCC4" next?
Reply: inactive

Query: Param item: "COC(=O)c1cccc2c1-c1ccccc1/C2=N/O"
Reply: inactive

Query: Follow-up entry: "O=C(NCCCN1CCOCC1)C1CCN(S(=O)(=O)c2c(Cl)cccc2Cl)CC1"
Reply: inactive

Query: // next record CCOC(=O)C1=C(C)NC(=O)CC1c1cc2c(cc1[N+](=O)[O-])OCO2 (centres undefined)
Reply: inactive

Query: // next record CCOC(=O)c1c(C)n(-c2ccc(C)cc2)c2ccc(OCC(O)CNCC3CCCO3)cc12 (centres undefined)
Reply: inactive

Query: What about "CCOC(=O)c1c(-c2ccc(OC)cc2)oc2ccc(O)cc12" ?
Reply: inactive

Query: Now give it for "CC(C)n1c(SCC(=O)N2c3ccccc3Sc3ccccc32)nc2c1c(=O)n(C)c(=O)n2C" too.
Reply: inactive

Query: "O=C1S/C(=C\c2ccc(N3CCOCC3)o2)C(=O)N1Cc1c(F)cccc1Cl" ?
Reply: inactive

Query: Entry "Clc1ccc(COc2ccccc2CNCc2cccnc2)cc1" please
Reply: inactive

Query: Next up: "CCN(CC)c1ccc(/C=N/NC(=O)CNC(=O)c2ccccn2)cc1"
Reply: inactive

Query: Now this one: "CN(C)c1ccc(-c2sc(Nc3ccccc3)n[n+]2-c2ccc(F)cc2)cc1"
Reply: inactive

Query: CC(CN1CCCC(C(N)=O)C1)c1ccccc1 (centres undefined) ?
Reply: inactive

Query: "CCc1nc2ccccc2n1Cc1ccccc1F" , same question.
Reply: inactive
